# assay-notes: qHTS assay to test for compound auto fluorescence at 535 nm (green) in HepG2 cell free culture (AID 720686)
# stated-conditions: Cell-free medium, green autofluorescence 485/535 nm; series mostly up to 46 µM
The source made the active and inactive calls. The call rests on the fitted dose curve; in most records, active means well fitted curve in the direction sought with a large enough effect in the repeat runs; inconclusive means weak or mixed curves; inactive means flat fitted curve, though single readings scatter.
measured-property: outcome

compound | outcome
CN1[C@@H](CC(=O)c2ccccc2)CCC[C@H]1C[C@H](O)c1ccccc1 | inactive
CCCCCCCCCCCCCCCCCCNC(=O)OC1CCN(C(=O)OC[C@H](COC(=O)N(Cc2cccc[n+]2CC)C(=O)c2ccccc2OC)OC)CC1 | inactive
CCOC(=O)Cc1ccc(-c2ccccc2)cc1 | inactive
N[C@H](C(=O)O)[C@@H]1CC(Cl)=NO1 | inactive
O=C1c2ccccc2CN2C(=O)c3ccccc3CN12 | inactive
CCN(CC)CCOC[C@H]1O[C@@H](O)[C@H](OCCN(CC)CC)[C@@H](O)[C@@H]1O | inactive

I would be grateful if you could share the reported outcome for CC1(C)S[C@@H]2[C@H](N3C(=O)C(c4ccccc4)NC3(C)C)C(=O)N2[C@H]1C(=O)O (some centres undefined) . inactive

Which outcome is listed for C=N[C@@H](C(=O)N[C@@H]1C(=O)N2[C@@H]1SC(C)(C)[C@@H]2C(=O)O)c1ccccc1 ? inactive

Record request: outcome value, item CCOc1cc(CC(=O)N[C@@H](CC(C)C)c2ccccc2N2CCCCC2)ccc1C(=O)O inactive

---

# assay-notes: qHTS assay to identify small molecule that activate the aryl hydrocarbon receptor (AhR) signaling pathway - cell viability counter screen (AID 743086); further: nearly all actives have a fitted effect of over 45% in size
# stated-conditions: HepG2-AhR-luc viability, CellTiter-Fluor, 24 h; series mostly up to 70.3 µM
Records with an inconclusive call do not appear. Activity calls are given as the source filed them. The call rests on the fitted dose curve; in most records, active means well fitted cell-killing curve with a large enough effect in the repeat runs; inconclusive means weak or mixed curves, or effect the other way; inactive means flat fitted curve, though single readings scatter.
Return exactly one item of 1 (yes) (active), 0 (no) (inactive)

Recorded results for 4 compounds are shown here.
compound | label-value
COc1cc(NS(C)(=O)=O)ccc1Nc1c2ccccc2nc2ccccc12 | 1 (yes)
CC[C@@]1([C@@H]2O[C@@H]([C@H]3O[C@@](O)(CO)[C@H](C)C[C@@H]3C)C[C@@H]2C)CC[C@H]([C@]2(C)CC[C@]3(C[C@H](O)[C@@H](C)[C@@H]([C@@H](C)[C@@H](OC)[C@H](C)C(=O)O)O3)O2)O1 (stereo in doubt) | 0 (no)
Cc1ccc(C(C)(C)c2ccc(C)cc2)cc1 | 0 (no)
CCOc1ccc(NC(=S)Nc2ccc(OCC)cc2)cc1 | 0 (no)

Lab note: next compound to report on.
For this compound, state the assay outcome: NC(=O)[C@@H]1CCCN1C(=O)[C@H](Cc1cnc[nH]1)NC(=O)[C@@H]1CCC(=O)N1 0 (no)

---

# tested-system: Progesterone receptor (Homo sapiens)
# assay-notes: qHTS assay to identify small molecule agonists of the progesterone receptor (PR) signaling pathway (AID 1346784); further: nearly all actives have a fitted effect of over 30% in size
# stated-conditions: PR-UAS-bla HEK293T, beta-lactamase FRET ratio, 16 h; series mostly up to 92.4 µM
# From the text: U.S. Tox21 Program National Center for Advancing Translational Sciences [NCATS] NIH Chemical Genomics Center [NCGC] U.S. Environmental Protection Agency [EPA] National Institutes of Environmental Health Sciences [NIEHS] National Toxicology Program [NTP] U.S. Food and Drug Administration [FDA] […] Endocrine disrupting chemicals (EDCs) and their interactions with steroid hormone receptors like PR causes disruption of normal endocrine function. […]
Records with an inconclusive call do not appear. The source made the active and inactive calls. Calls come from the whole dose curve.
measured-property: activation

Known activation results, listed for orientation:
molecule | activation
C=COCCCC | inactive
NCc1ccco1 | inactive
CCOC(=O)C1=NN(c2ccc(Cl)cc2Cl)C(C)(C(=O)OCC)C1 (centres undefined) | inactive
c1ccc(-c2nc3ccccc3[nH]2)cc1 | inactive
C1CCSC1 | inactive
O=C1CCC/C=C\CCCCCCCCCC1 | inactive
CCCCCCCCc1ccc(Nc2ccc(CCCCCCCC)cc2)cc1 | inactive
Cn1ccnc1 | inactive
CC(=O)CC(N)=O | inactive
COc1cc([C@@H]2c3cc4c(cc3[C@@H](O[C@@H]3O[C@@H]5CO[C@@H](C)O[C@H]5[C@H](O)[C@H]3O)[C@H]3COC(=O)[C@H]23)OCO4)cc(OC)c1O | inactive

Param item = Nc1ccc(Cl)c([N+](=O)[O-])c1 ; retrieve measured activation. inactive

What activation value was documented for this molecule, O=C1CCC(=O)N1 ? inactive

# input molecule: N#CCCOCCC#N ; wanted: its activation inactive

Name the recorded activation for CN1CCN(CCCN2c3ccccc3Sc3ccc(Cl)cc32)CC1 . inactive

What value of activation has been reported for the following molecule? c1ccc2occc2c1 inactive

Request the reported activation associated with O=[N+]([O-])c1ccc(O)c2ncccc12 inactive

Quick check: activation of [Cl][Eu]([Cl])[Cl] ? inactive

// returns reported activation for input CSc1nnc(C(C)(C)C)c(=O)[nH]1 inactive

# activation lookup, item [Cl][Sc]([Cl])[Cl] inactive

Value lookup for activation; key = CCCCCCCCCCCC(=O)Cl inactive

Look up activation for this molecule: C[C@H]1O[C@@H](O[C@H]2CC[C@@]3(C)[C@H](CC[C@@H]4[C@@H]3C[C@@H](O)[C@]3(C)[C@@H](C5=CC(=O)OC5)CC[C@]43O)C2)C[C@H](O)[C@@H]1O[C@H]1C[C@H](O)[C@H](O[C@H]2C[C@H](O)[C@H](O[C@@H]3O[C@H](CO)[C@@H](O)[C@H](O)[C@H]3O)[C@@H](C)O2)[C@@H](C)O1 inactive
